Ref: PubChem BioAssay (NCATS)

Assay: qHTS Screen of the MIPE 4.0 Collection Against Ewings Sarcoma (RDES) (AID 1259252); note: nearly all actives have a fitted effect of over 35% in size
Settings: RD-ES Ewing sarcoma viability, CellTiter-Glo, 48 h; series mostly up to 45.8 µM
Records with an inconclusive call do not appear. Activity calls are given as the source filed them. Calls come from the whole dose curve; as a rule, active = well fitted inhibition curve with a large enough effect; inconclusive = small, poorly fitted or top-dose-only effect; inactive = no such curve, though single readings can be large or run the other way.
Your reply should match one of these outcome classes. y for active, n for inactive

Check out these entries, answers already filled in.
[
  {
    "compound": "Nc1nc(N)c(N=O)c(OCC2CCCCC2)n1",
    "class-name": "y"
  },
  {
    "compound": "CC(=O)N1CCN(c2ccc(OC[C@H]3CO[C@](Cn4ccnc4)(c4ccc(Cl)cc4Cl)O3)cc2)CC1",
    "class-name": "y"
  },
  {
    "compound": "O=C(c1ccccc1)c1ccc2n1CCC2C(=O)O (stereo not drawn)",
    "class-name": "y"
  },
  {
    "compound": "CCOC(=O)C1=C[C@@H](OC(CC)CC)[C@H](NC(C)=O)[C@@H](N)C1",
    "class-name": "n"
  },
  {
    "compound": "COc1cc(Nc2c(C#N)cnc3cc(OCCCN4CCN(C)CC4)c(OC)cc23)c(Cl)cc1Cl",
    "class-name": "y"
  },
  {
    "compound": "Cc1cc2c(s1)Nc1ccccc1N=C2N1CCN(C)CC1",
    "class-name": "n"
  },
  {
    "compound": "CC(C)c1nc(CN(C)C(=O)N[C@H](C(=O)N[C@@H](Cc2ccccc2)C[C@H](O)[C@H](Cc2ccccc2)NC(=O)OCc2cncs2)C(C)C)cs1",
    "class-name": "n"
  },
  {
    "compound": "CCOC(=O)C1=C(O)C(=O)N(Cc2ccccc2)C1",
    "class-name": "n"
  },
  {
    "compound": "COc1c(O)cc2c(c1O)[C@@H]1O[C@H](CO)[C@@H](O)[C@H](O)[C@H]1OC2=O",
    "class-name": "n"
  },
  {
    "compound": "c1cnc2cc3c(cc2n1)C1CNCC3C1",
    "class-name": "n"
  }
]

Problem: How did this test come out for CCCCN(CCCC)CCC(O)c1cc2c(Cl)cc(Cl)cc2c2cc(C(F)(F)F)ccc12 (stereo not drawn) ?
Result: n

Problem: How did this test come out for "O=C(O)c1cccnc1Nc1cccc(C(F)(F)F)c1" ?
Result: n

Problem: How did this test come out for "Nc1ncn([C@H]2C[C@H](O)[C@@H](CO)O2)c(=O)n1" ?
Result: y

Problem: How did this test come out for "COc1ccc2cc([C@H](C)C(=O)O)ccc2c1" ?
Result: n

Problem: How did this test come out for O=C(OC1C[C@H]2CC[C@@H](C1)[N+]21CCCC1)C(O)(c1ccccc1)c1ccccc1 (stereo partly drawn) ?
Result: n

Problem: How did this test come out for "CS(=O)(=O)OCCCCOS(C)(=O)=O" ?
Result: n

====

Experiment: qHTS of pediatric cancer cell lines to identify multiple opportunities for drug repurposing: Primary screen for NB-EBc1 cells (AID 1347095)
Settings: NB-EBc1 neuroblastoma viability, CellTiter-Glo luminescence, 48 h; series mostly up to 46 µM
Inconclusive results are not listed. Calls of active or inactive are those of the source. The call rests on the fitted dose curve; in most records, active means well fitted cell-killing curve with a large enough effect; inconclusive means small, poorly fitted or top-dose-only effect; inactive means no such curve, though single readings can be large or run the other way.
readout-type: outcome

Past entries and their recorded results:
[
  {
    "compound": "N=C(N=C(N)N)N1CCOCC1",
    "outcome": "inactive"
  },
  {
    "compound": "Oc1ccc(-c2nc(-c3ccc(F)cc3)c(-c3ccncc3)[nH]2)cc1",
    "outcome": "inactive"
  },
  {
    "compound": "COc1ccc(C2(C#N)CCC(C(=O)O)CC2)cc1OC1CCCC1 (stereo not drawn)",
    "outcome": "inactive"
  },
  {
    "compound": "CCC(C)(Oc1ccc(C2(c3ccc(OC(C)(CC)C(=O)O)cc3)CCCCC2)cc1)C(=O)O (stereo not drawn)",
    "outcome": "inactive"
  },
  {
    "compound": "CCOC(=O)C(C)Oc1cccc2c(=O)n(CC(=O)Nc3ccc4c(c3)OCCO4)ccc12 (stereo not drawn)",
    "outcome": "inactive"
  }
]

Report outcome for every entry below.
1. NS(=O)(=O)c1cc(C(=O)O)c(NCc2ccco2)cc1Cl
2. Cc1cc2cc3c(C)cc(=O)oc3c(C)c2o1

Result:
inactive
inactive

Report outcome for every entry below.
1. Clc1ccc2c(N3CCN(CCCN4CCN(c5ccnc6cc(Cl)ccc56)CC4)CC3)ccnc2c1
2. O=C(CS(=O)Cc1ccco1)NCC=CCOc1cc(CN2CCCCC2)ccn1 (stereo not drawn)
3. COCCCOc1ccnc(CS(=O)c2nc3ccccc3[nH]2)c1C (stereo not drawn)
4. O=C1NC(=O)C(c2ccccc2[N+](=O)[O-])=C1Nc1ccc(O)c(Cl)c1

Result:
1: inactive; 2: inactive; 3: inactive; 4: inactive

Report outcome for every entry below.
1. C[C@@H](N)C1CCC(C(=O)Nc2ccncc2)CC1 (stereo partly drawn)
2. CC1(C)NC(=O)N(c2ccc([N+](=O)[O-])c(C(F)(F)F)c2)C1=O
3. NC(=O)Cc1cccc(C(=O)c2ccccc2)c1N
4. CN1CCC(=C2c3ccccc3CCc3sccc32)CC1
5. CC(=O)NC[C@H]1CN(c2ccc(N3CCOCC3)c(F)c2)C(=O)O1
6. O=C(NC(Cc1cc(=O)[nH]c2ccccc12)C(=O)O)c1ccc(Cl)cc1 (stereo not drawn)
7. c1ccc2[nH]c(-c3cscn3)nc2c1
8. O=C(c1ccccc1)c1ccc2n1CCC2C(=O)O (stereo not drawn)

Result:
1: inactive; 2: inactive; 3: inactive; 4: inactive; 5: inactive; 6: inactive; 7: inactive; 8: inactive

Report outcome for every entry below.
1. O=C(O)c1cn(-c2ccc(F)cc2)c2cc(N3CCNCC3)c(F)cc2c1=O
2. COC(=O)C1=C(C)NC(C)=C(C(=O)OCCCN2CCC(c3ccccc3)(c3ccccc3)CC2)C1c1cccc([N+](=O)[O-])c1 (stereo not drawn)

Result:
["inactive", "inactive"]

Report outcome for every entry below.
1. COc1cc2nc(N3CCN(C(=O)C4CCCO4)CC3)nc(N)c2cc1OC (stereo not drawn)
2. O=P(O)(O)C(O)(Cn1ccnc1)P(=O)(O)O
3. NC(=NCc1ccccc1)NC(=O)c1nc(Cl)c(N)nc1N
4. CC(C)Oc1ccc2c(=O)c(-c3ccccc3)coc2c1
5. CCOC(=O)C1=C[C@@H](OC(CC)CC)[C@H](NC(C)=O)[C@@H](N)C1
6. O=C(OC1C[C@H]2CC[C@@H](C1)[N+]21CCCC1)C(O)(c1ccccc1)c1ccccc1 (stereo partly drawn)
7. CN(C)CCc1c[nH]c2ccc(Cn3cncn3)cc12

Result:
1. inactive
2. inactive
3. inactive
4. inactive
5. inactive
6. inactive
7. inactive

Report outcome for every entry below.
1. COc1cc2c(cc1OC)C1CC(=O)C(CC(C)C)CN1CC2 (stereo not drawn)
2. CC1=C(C)C(=O)C(C(CCCCCC(=O)O)c2ccccc2)=C(C)C1=O (stereo not drawn)

Result:
["inactive", "inactive"]

Report outcome for every entry below.
1. C[C@@H](c1ncncc1F)[C@](O)(Cn1cncn1)c1ccc(F)cc1F
2. COc1cc(OC)c(C(=O)CCCN2CCCC2)c(OC)c1
3. O=c1c(O)c(-c2cc(O)c(O)c(O)c2)oc2cc(O)cc(O)c12

Result:
["inactive", "inactive", "inactive"]

====

Assay: qHTS of pediatric cancer cell lines to identify multiple opportunities for drug repurposing: Primary screen for Saos-2 cells (AID 1347097); note: nearly all actives have a fitted effect of over 40% in size
Conditions: Saos-2 viability, CellTiter-Glo ATP luminescence, 48 h; series mostly up to 46 µM
Records with an inconclusive call do not appear. Activity calls are given as the source filed them. The call rests on the fitted dose curve; in most records, active means well fitted cell-killing curve with a large enough effect; inconclusive means small, poorly fitted or top-dose-only effect; inactive means no such curve, though single readings can be large or run the other way.
Your reply should match one of these outcome classes. Y for active, N for inactive

Check out these entries, answers already filled in.
[
  {
    "compound": "O=C(CS(=O)Cc1ccco1)NCC=CCOc1cc(CN2CCCCC2)ccn1 (stereo unspecified)",
    "class-name": "N"
  },
  {
    "compound": "O=P(O)(O)C(O)(Cn1ccnc1)P(=O)(O)O",
    "class-name": "N"
  },
  {
    "compound": "CCN(CC)CCOc1ccc(Cc2ccccc2)cc1",
    "class-name": "N"
  }
]

Below: the item to evaluate.
Problem: How did this test come out for "CN(C)c1ccc(O)c2c1C[C@H]1C[C@H]3[C@H](N(C)C)C(=O)C(C(N)=O)=C(O)[C@@]3(O)C(=O)C1=C2O" ?
Result: N

====

Give measured Potency for each item. Keep answers brief.
Assay: qHTS Screen of the MIPE 4.0 Collection Against Ewings Sarcoma (TC32) (AID 1259256); note: potency is the fitted concentration of half-maximal effect; nearly all actives have a fitted effect of over 45% in size
Conditions: TC32 Ewing sarcoma viability, CellTiter-Glo, 48 h; series mostly up to 45.8 µM
Inconclusive results are not listed. Active and inactive are the calls of the source. Calls follow the shape of the dose curve; as a rule, active = well fitted inhibition curve with a large enough effect; inconclusive = small, poorly fitted or top-dose-only effect; inactive = no such curve, though single readings can be large or run the other way.

[
  {
    "smiles-string": "COC1=C(OC)C(=O)C(CCCCCCCCCCO)=C(C)C1=O",
    "Potency": "26.4 µM (active)"
  },
  {
    "smiles-string": "O=c1ccc2ccc(O)c(O)c2o1",
    "Potency": "13.2 µM (active)"
  }
]

Problem: What does the data say about its Potency? Entry: "Nc1nc(Cl)nc2c1ncn2[C@H]1C[C@H](O)[C@@H](CO)O1"
Result: 0.296 µM (active)
